Organism: Rattus norvegicus
TEST_METHOD_NOTES: DrugMatrix - Regimen: Daily Repeat
Type: toxicity, organism-based, Sprague-Dawley
Set-up: regimen Daily Repeat, gender Male, age 6-8 weeks
MEASUREMENT_PARAMETERS: in vivo, po, 1500 mg/kg, 120 h, tissue Plasma, route oral GAVAGE, dose level High, time 5 day, vehicle .5 % CMC
MEASURE_NAME: PHOSPHORUS (mg/dL)
One number for each entry, in mg/dL.

A selection of reference data follows.
1. NC(=O)c1cnccn1 [PYRAZINAMIDE]; 12.47
2. C[C@]1(Cn2ccnn2)[C@H](C(=O)O)N2C(=O)C[C@H]2S1(=O)=O [TAZOBACTAM]; 12.83

Next item in the queue.
Task: Return PHOSPHORUS (reported value) for this molecule: O=C(N[C@H](CO)[C@H](O)c1ccc([N+](=O)[O-])cc1)C(Cl)Cl [CHLORAMPHENICOL]
Output: 9.33

====

Species: Rattus norvegicus
TEST_METHOD_NOTES: DrugMatrix - Regimen: Daily Repeat
Type: toxicity, organism-based, Sprague-Dawley
Design: regimen Daily Repeat, gender Male, age 6-8 weeks
MEASUREMENT_PARAMETERS: in vivo, po, 1500 mg/kg, 72 h, tissue Blood, route oral GAVAGE, dose level High, time 3 day, vehicle .5 % CMC
MEASURE_NAME: EOSINOPHIL (%)
Give bare numbers, in %.

# annotated cases, reported EOSINOPHIL shown
1. C[C@]1(Cn2ccnn2)[C@H](C(=O)O)N2C(=O)C[C@H]2S1(=O)=O; 1.67
2. CNC(=C[N+](=O)[O-])NCCSCc1ccc(CN(C)C)o1; 0.33
3. O=C(N[C@H](CO)[C@H](O)c1ccc([N+](=O)[O-])cc1)C(Cl)Cl; 0
4. CO[C@H]1/C=C/O[C@@]2(C)Oc3c(C)c(O)c4c(c3C2=O)C2=NC3(CCN(CC(C)C)CC3)NC2=C(NC(=O)/C(C)=C\C=C\[C@H](C)[C@H](O)[C@@H](C)[C@@H](O)[C@@H](C)[C@H](OC(C)=O)[C@@H]1C)C4=O; 0
5. Cc1ccc(S(=O)(=O)NC(=O)NN2CC3CCCC3C2)cc1 (configuration not stated) [GLICLAZIDE]; 0.33
6. NC(=O)c1cnccn1 [PYRAZINAMIDE]; 1.33

For the next question, use this compound.
Task: Give EOSINOPHIL for Cc1cc(=O)n(-c2ccccc2)n1C [ANTIPYRINE]
Output: 0.33

====

Would you mind telling me the reported LEUKOCYTE COUNT of each entry?
Species: Rattus norvegicus
TEST_METHOD_NOTES: DrugMatrix - Regimen: Daily Repeat
Assay type: toxicity, organism-based, Sprague-Dawley
Set-up: regimen Daily Repeat, gender Male, age 6-8 weeks
MEASUREMENT_PARAMETERS: in vivo, po, 0 mg/kg, 120 h, tissue Blood, route oral GAVAGE, dose level Control, time 5 day, vehicle .5 % CMC
Answers are plain numbers, in x10E3/uL.

Recorded results for 6 compounds are shown here.
1. CNC(=C[N+](=O)[O-])NCCSCc1ccc(CN(C)C)o1; 16.08
2. CC[C@@H](CO)NCCN[C@@H](CC)CO; 11.8
3. C#C[C@]1(O)CC[C@H]2[C@@H]3CCc4cc(OC)ccc4[C@H]3CC[C@@]21C; 16.08
4. CN1C(=O)COc2c(C(=O)NC3CN4CCC3CC4)cc(Cl)cc21 (stereo not given); 15.78
5. CN1CCC(=C2c3ccccc3C=Cc3ccccc32)CC1; 12.43
6. OC(CCN1CCCCC1)(c1ccccc1)C1CCCCC1 (stereo not given); 14.93

Hey, can you go through the list below and give me LEUKOCYTE COUNT for every item?
1. N=C(N)NC(=O)c1nc(Cl)c(N)nc1N [AMILORIDE]
2. CO[C@H]1/C=C/O[C@@]2(C)Oc3c(C)c(O)c4c(c3C2=O)C2=NC3(CCN(CC(C)C)CC3)NC2=C(NC(=O)/C(C)=C\C=C\[C@H](C)[C@H](O)[C@@H](C)[C@@H](O)[C@@H](C)[C@H](OC(C)=O)[C@@H]1C)C4=O
3. Cc1onc(-c2ccccc2)c1-c1ccc(S(N)(=O)=O)cc1
4. C[C@](O)(CS(=O)(=O)c1ccc(F)cc1)C(=O)Nc1ccc(C#N)c(C(F)(F)F)c1 [(R)-BICALUTAMIDE]
5. CC(C)[C@H]1CC[C@H](C(=O)N[C@H](Cc2ccccc2)C(=O)O)CC1 [NATEGLINIDE]
6. O=C1CCC(N2C(=O)c3ccccc3C2=O)C(=O)N1 (stereo not given) [THALIDOMIDE]
7. O=[N+]([O-])c1ccccc1
8. Clc1ccc2c(c1)C(N1CCNCC1)=Nc1ccccc1O2

Output:
11.8
16.08
11.38
15.07
13.02
9.45
7.86
15.95

Task: Fill in reported LEUKOCYTE COUNT for this entry: C[C@]1(Cn2ccnn2)[C@H](C(=O)O)N2C(=O)C[C@H]2S1(=O)=O
Output: 17.67

====

Species on record: Rattus norvegicus
TEST_METHOD_NOTES: DrugMatrix - Regimen: Daily Repeat
Format: toxicity, organism-based, Sprague-Dawley
Design: regimen Daily Repeat, gender Male, age 6-8 weeks
MEASUREMENT_PARAMETERS: in vivo, po, 1500 mg/kg, 120 h, tissue Plasma, route oral GAVAGE, dose level High, time 5 day, vehicle .5 % CMC
Would you mind telling me the reported CHLORIDE of each entry?
Numbers only, in MEQ/L.

Field: example entries. Status: answers known.
1. O=C(N[C@H](CO)[C@H](O)c1ccc([N+](=O)[O-])cc1)C(Cl)Cl; 103
2. NC(=O)c1cnccn1 [PYRAZINAMIDE]; 104.5
3. C[C@]1(Cn2ccnn2)[C@H](C(=O)O)N2C(=O)C[C@H]2S1(=O)=O; 104
4. CNC(=C[N+](=O)[O-])NCCSCc1ccc(CN(C)C)o1; 100.33
5. CO[C@H]1/C=C/O[C@@]2(C)Oc3c(C)c(O)c4c(c3C2=O)C2=NC3(CCN(CC(C)C)CC3)NC2=C(NC(=O)/C(C)=C\C=C\[C@H](C)[C@H](O)[C@@H](C)[C@@H](O)[C@@H](C)[C@H](OC(C)=O)[C@@H]1C)C4=O; 97.5

Field: CHLORIDE. Fill in for each record below.
1. Cc1cc(=O)n(-c2ccccc2)n1C [ANTIPYRINE]
2. Cc1ccc(S(=O)(=O)NC(=O)NN2CC3CCCC3C2)cc1 (configuration not stated) [GLICLAZIDE]

Output:
1: 103; 2: 103.67

====

For each entry below, report its ALKALINE PHOSPHATASE value.
Species on record: Rattus norvegicus
TEST_METHOD_NOTES: DrugMatrix - Regimen: Daily Repeat
Format: toxicity, organism-based, Sprague-Dawley
Parameters: regimen Daily Repeat, gender Male, age 6-8 weeks
MEASUREMENT_PARAMETERS: in vivo, po, 0 mg/kg, 72 h, tissue Plasma, route oral GAVAGE, dose level Control, time 3 day, vehicle .5 % CMC
Numbers only, in u/L.

1. CN1C(=O)COc2c(C(=O)NC3CN4CCC3CC4)cc(Cl)cc21 (centres undefined); 398.5
2. CO[C@H]1/C=C/O[C@@]2(C)Oc3c(C)c(O)c4c(c3C2=O)C2=NC3(CCN(CC(C)C)CC3)NC2=C(NC(=O)/C(C)=C\C=C\[C@H](C)[C@H](O)[C@@H](C)[C@@H](O)[C@@H](C)[C@H](OC(C)=O)[C@@H]1C)C4=O; 378.5
3. CN1CCC(=C2c3ccccc3C=Cc3ccccc32)CC1; 368.33

Task: Give ALKALINE PHOSPHATASE for Clc1ccc2c(c1)C(N1CCNCC1)=Nc1ccccc1O2
Output: 427.67

====

For each of the compounds below, state its NUCLEATED RED BLOOD CELLS.
Species: Rattus norvegicus
TEST_METHOD_NOTES: DrugMatrix - Regimen: Daily Repeat
Type: toxicity, organism-based, Sprague-Dawley
Parameters: regimen Daily Repeat, gender Male, age 6-8 weeks
MEASUREMENT_PARAMETERS: in vivo, po, 0 mg/kg, 72 h, tissue Blood, route oral GAVAGE, dose level Control, time 3 day, vehicle .5 % CMC

1) CNC(=C[N+](=O)[O-])NCCSCc1ccc(CN(C)C)o1; 0.33 /100WBC
2) C[C@](O)(CS(=O)(=O)c1ccc(F)cc1)C(=O)Nc1ccc(C#N)c(C(F)(F)F)c1 [(R)-BICALUTAMIDE]; 0 /100WBC
3) CO[C@H]1/C=C/O[C@@]2(C)Oc3c(C)c(O)c4c(c3C2=O)C2=NC3(CCN(CC(C)C)CC3)NC2=C(NC(=O)/C(C)=C\C=C\[C@H](C)[C@H](O)[C@@H](C)[C@@H](O)[C@@H](C)[C@H](OC(C)=O)[C@@H]1C)C4=O; 0.33 /100WBC
4) Clc1ccc2c(c1)C(N1CCNCC1)=Nc1ccccc1O2; 0.67 /100WBC
5) C[C@]1(Cn2ccnn2)[C@H](C(=O)O)N2C(=O)C[C@H]2S1(=O)=O; 0 /100WBC
6) CN1C(=O)COc2c(C(=O)NC3CN4CCC3CC4)cc(Cl)cc21 (stereo not given); 0 /100WBC
7) C#C[C@]1(O)CC[C@H]2[C@@H]3CCc4cc(OC)ccc4[C@H]3CC[C@@]21C; 0.33 /100WBC
8) OC(CCN1CCCCC1)(c1ccccc1)C1CCCCC1 (stereo not given); 0 /100WBC
9) CC(=O)CC(c1ccccc1)c1c(O)c2ccccc2oc1=O (stereo not given); 0 /100WBC

Please look at the following compound next.
Task: Return NUCLEATED RED BLOOD CELLS for the following compound: CC(C)[C@H]1CC[C@H](C(=O)N[C@H](Cc2ccccc2)C(=O)O)CC1 [NATEGLINIDE]
Output: 0 /100WBC

Where do the numbers come from? From ChEMBL document CHEMBL3885881.
